TESTED_ON: human Nav1.8 (Homo sapiens, UniProt Q9Y5Y9)
Construct: expressed in transfected cells; host or cells: HEK293 (HEK293-Nav1.8)
Sequence (Q9Y5Y9 whole entry): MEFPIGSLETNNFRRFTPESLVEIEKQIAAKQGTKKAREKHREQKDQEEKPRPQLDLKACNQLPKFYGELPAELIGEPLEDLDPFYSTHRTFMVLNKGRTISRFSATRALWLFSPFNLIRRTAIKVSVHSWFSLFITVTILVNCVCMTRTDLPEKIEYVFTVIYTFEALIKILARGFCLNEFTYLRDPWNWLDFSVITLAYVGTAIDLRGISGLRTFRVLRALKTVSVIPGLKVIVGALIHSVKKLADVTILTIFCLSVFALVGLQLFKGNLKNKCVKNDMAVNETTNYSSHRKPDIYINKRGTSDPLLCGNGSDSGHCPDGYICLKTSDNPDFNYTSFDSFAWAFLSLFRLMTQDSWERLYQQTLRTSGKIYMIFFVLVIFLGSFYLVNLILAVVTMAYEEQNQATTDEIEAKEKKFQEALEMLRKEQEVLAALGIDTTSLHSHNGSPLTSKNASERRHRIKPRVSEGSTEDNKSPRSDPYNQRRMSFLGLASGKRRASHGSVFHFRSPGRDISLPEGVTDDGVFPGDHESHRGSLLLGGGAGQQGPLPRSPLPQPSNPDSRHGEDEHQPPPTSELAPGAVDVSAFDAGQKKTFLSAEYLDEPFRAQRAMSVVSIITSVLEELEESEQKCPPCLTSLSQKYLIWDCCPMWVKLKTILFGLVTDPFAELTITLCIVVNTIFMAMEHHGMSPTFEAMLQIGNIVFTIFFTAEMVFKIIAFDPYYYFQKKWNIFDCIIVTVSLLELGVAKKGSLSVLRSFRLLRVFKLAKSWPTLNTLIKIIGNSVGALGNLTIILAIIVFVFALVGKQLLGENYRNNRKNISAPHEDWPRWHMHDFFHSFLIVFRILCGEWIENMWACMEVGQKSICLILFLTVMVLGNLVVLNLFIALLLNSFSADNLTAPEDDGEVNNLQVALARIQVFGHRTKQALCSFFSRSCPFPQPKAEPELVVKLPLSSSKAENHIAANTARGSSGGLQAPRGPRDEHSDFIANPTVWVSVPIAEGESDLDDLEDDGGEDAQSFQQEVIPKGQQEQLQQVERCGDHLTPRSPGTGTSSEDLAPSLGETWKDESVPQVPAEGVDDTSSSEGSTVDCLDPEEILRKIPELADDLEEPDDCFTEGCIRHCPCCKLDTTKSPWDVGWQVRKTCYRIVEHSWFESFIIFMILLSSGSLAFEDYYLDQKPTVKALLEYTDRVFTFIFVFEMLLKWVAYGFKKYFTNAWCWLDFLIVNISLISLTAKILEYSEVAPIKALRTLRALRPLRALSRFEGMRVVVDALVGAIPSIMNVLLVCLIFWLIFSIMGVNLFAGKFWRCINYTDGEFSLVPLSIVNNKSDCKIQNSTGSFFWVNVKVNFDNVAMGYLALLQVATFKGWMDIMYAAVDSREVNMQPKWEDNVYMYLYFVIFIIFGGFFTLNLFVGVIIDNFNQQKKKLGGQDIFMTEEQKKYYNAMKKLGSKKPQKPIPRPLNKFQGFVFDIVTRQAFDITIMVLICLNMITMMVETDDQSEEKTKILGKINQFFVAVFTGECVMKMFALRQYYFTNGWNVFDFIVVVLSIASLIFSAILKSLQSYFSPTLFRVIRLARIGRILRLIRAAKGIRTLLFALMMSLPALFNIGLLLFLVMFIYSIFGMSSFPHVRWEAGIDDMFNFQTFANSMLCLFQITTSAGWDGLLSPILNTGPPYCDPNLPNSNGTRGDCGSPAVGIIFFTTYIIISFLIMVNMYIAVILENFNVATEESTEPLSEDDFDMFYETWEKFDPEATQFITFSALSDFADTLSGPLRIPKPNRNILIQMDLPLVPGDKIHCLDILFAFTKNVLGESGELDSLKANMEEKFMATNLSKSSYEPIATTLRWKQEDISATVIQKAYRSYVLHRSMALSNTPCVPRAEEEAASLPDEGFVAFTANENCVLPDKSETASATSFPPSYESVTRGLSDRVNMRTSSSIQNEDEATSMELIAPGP
Sequence (Q07699 19-218 partner): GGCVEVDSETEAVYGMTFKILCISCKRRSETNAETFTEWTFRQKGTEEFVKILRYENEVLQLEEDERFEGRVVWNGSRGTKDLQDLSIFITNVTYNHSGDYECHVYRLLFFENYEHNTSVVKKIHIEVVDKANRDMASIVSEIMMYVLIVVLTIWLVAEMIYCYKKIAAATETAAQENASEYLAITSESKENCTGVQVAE
ASSAY_PROTOCOL: Nav1.8 sodium channels assay, QPatch 48 HTX electrophysiology in HEK293-Nav1.8 cells
Type: cell-based
CONDITION_DESCRIPTION: Table 2; HEK293-Nav1.8, QPatch 48 HTX, half inactivation state voltage protocol (V1/2); single run or average of two or more runs; read-out: Nav1.8 pIC50 (converted)
Below, each entry is listed with its recorded IC50.
READOUT_TYPE: IC50

[
  {
    "MOLECULE": "Cc1cc(F)ccc1N1CN(c2cc[nH]c(=O)c2C)C(=O)c2ccc(C(F)(F)F)cc21 [drawing 312]",
    "READOUT_TYPE": "IC50",
    "OBSERVED": "1260 nM"
  },
  {
    "MOLECULE": "Cc1cc(N2CN(c3ccc(F)cc3C)c3cc(C(F)(F)F)ccc3C2=O)cc(=O)[nH]1 [drawing 310]",
    "READOUT_TYPE": "IC50",
    "OBSERVED": "2510 nM"
  },
  {
    "MOLECULE": "Cc1cc(F)ccc1N1CN(c2cc[nH]c(=O)c2)C(=O)c2ccc(C(F)(F)F)cc21 [drawing 309]",
    "READOUT_TYPE": "IC50",
    "OBSERVED": "398 nM"
  },
  {
    "MOLECULE": "Cc1c[nH]c(=O)cc1N1CN(c2ccc(F)cc2C)c2cc(C(F)(F)F)ccc2C1=O [drawing 311]",
    "READOUT_TYPE": "IC50",
    "OBSERVED": "1000 nM"
  }
]
